Each recorded value in this set is attributed to patent US7732412B2.

Target: human LHRH receptor (Homo sapiens, UniProt P30968)
Sequence (P30968 1-328): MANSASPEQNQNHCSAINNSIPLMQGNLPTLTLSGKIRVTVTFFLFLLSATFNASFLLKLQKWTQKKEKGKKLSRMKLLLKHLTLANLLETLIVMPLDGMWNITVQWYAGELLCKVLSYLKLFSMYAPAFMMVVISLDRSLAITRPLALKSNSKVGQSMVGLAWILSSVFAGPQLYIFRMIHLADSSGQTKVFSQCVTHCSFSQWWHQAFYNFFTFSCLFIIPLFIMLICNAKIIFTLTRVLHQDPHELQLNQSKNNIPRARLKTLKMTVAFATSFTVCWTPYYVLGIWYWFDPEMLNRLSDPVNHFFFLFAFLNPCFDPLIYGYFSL
Assay: functional assay for antagonistic activity, fos-Luc luciferase reporter gene, stimulation with 1 nM [D-Trp6] LHRH
Settings: cells stimulated with 1 nM [D-Trp6] LHRH for 6 h; bracket = number of independent experiments
Numbered stars: 1 amine (or outer) side, 2 acyl side, 3 side chain; on linkers, the order of the positions; unused ones are H or OH. Square brackets hold non-standard residues; d marks the D form. Side chains are listed from the residue outwards. Peptide text beside a SMILES is read from it. * marks the point of attachment. Triazole(1,2,4-3-CO,5-NH) = O=C(c1n[nH]c(N[*:1])n1)[*:2]; Propanoyl(3-(4-F-phenyl)) = O=C(CCc1ccc(F)cc1)*; NH(4-amidinophenyl) = N=C(N)c1ccc(N*)cc1; dPhe(4-Cl) = N[C@H](Cc1ccc(Cl)cc1)C(=O)O; d1Nal = N[C@H](Cc1cccc2ccccc12)C(=O)O; d2Nal = N[C@H](Cc1ccc2ccccc2c1)C(=O)O; Lys(iPr) = CC(C)NCCCC[C@H](N)C(=O)O; NMeY = CN[C@@H](Cc1ccc(O)cc1)C(=O)O; d3Pal = N[C@H](Cc1cccnc1)C(=O)O; Suc = O=C(CCC(=O)[*:2])[*:1]; Nle = CCCC[C@H](N)C(=O)O; Sar = CNCC(=O)O
MEASURE: IC50 (nM)
Numbers only, in nM.

>>> measured_value("CC(C)C[C@H](NC(=O)[C@@H](CCCCNC(=O)c1nc(N)n[nH]1)NC(=O)[C@H](Cc1ccc(O)cc1)N(C)C(=O)[C@H](CO)NC(=O)[C@@H](Cc1cccc2ccccc12)NC(=O)CCc1ccc(F)cc1)C(=O)N[C@@H](CCCNC(=N)N)C(=O)N1CCC[C@H]1C(=O)N[C@H](C)C(N)=O [Example 6] ({Propanoyl(3-(4-F-phenyl))}-[d1Nal]S[NMeY][dK](Triazole(1,2,4-3-CO,5-NH))LRP[dA]-NH2)")
0.221

In: Read off the recorded IC50 for CCCC[C@H](NC(=O)[C@@H](CCCCNC(=O)CCC(=O)Nc1ccc(C(=N)N)cc1)NC(=O)[C@H](Cc1ccc(O)cc1)N(C)C(=O)[C@H](CO)NC(=O)[C@@H](Cc1cccnc1)NC(=O)[C@@H](Cc1ccc(Cl)cc1)NC(=O)[C@@H](Cc1ccc2ccccc2c1)NC(C)=O)C(=O)N[C@@H](CCCCNC(C)C)C(=O)N1CCC[C@H]1C(=O)N(C)CC(N)=O [Example 9] (Ac-[d2Nal][dPhe(4-Cl)][d3Pal]S[NMeY][dK]([Suc-NH(4-amidinophenyl)])[Nle][Lys(iPr)]P[Sar]-NH2)
Out: 4.7
